Cited source for all entries: patent US10004732B2

studyTarget: Vps34 (Homo sapiens, UniProt Q8NEB9)
Sequence (Q8NEB9 whole entry, species assumed): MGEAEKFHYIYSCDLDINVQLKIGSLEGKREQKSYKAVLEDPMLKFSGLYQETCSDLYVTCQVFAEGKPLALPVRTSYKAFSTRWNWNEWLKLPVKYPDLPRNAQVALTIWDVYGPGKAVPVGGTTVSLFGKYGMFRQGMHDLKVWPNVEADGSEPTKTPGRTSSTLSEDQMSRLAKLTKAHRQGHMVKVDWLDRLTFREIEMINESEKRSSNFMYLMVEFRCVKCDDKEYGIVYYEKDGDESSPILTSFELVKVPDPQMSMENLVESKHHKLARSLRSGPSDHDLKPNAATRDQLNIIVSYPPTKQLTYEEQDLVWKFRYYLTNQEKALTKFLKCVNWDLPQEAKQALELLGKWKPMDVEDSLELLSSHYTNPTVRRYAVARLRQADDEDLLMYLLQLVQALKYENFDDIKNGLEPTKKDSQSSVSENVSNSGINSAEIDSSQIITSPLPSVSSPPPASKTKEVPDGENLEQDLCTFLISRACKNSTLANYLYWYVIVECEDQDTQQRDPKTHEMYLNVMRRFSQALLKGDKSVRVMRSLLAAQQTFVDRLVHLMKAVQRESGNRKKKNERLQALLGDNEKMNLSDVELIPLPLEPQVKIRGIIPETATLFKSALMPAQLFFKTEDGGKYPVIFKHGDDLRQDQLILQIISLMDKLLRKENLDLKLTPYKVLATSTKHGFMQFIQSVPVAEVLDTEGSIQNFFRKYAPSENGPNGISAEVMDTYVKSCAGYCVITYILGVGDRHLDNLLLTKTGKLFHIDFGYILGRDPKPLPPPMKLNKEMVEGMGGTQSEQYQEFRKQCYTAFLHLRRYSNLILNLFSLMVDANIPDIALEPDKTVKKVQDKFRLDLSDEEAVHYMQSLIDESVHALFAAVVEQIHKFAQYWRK
assayComment: Kinase Glo Luminescent Kinase Assay (Kglo), assay C
Assay type: biochemical
condition: read-out: Assay C VPS34 IC50
pIC50: −log10 of the molar value. Where a name gives a salt, the structure may show the parent alone.
Overview of recorded pIC50 for various compounds

The examples below pair each entry with its known result.
# compound, studyTarget, pIC50
records = [
    ("Cc1ccc(S(=O)(=O)NCCC(F)(F)F)cc1-c1cnc(N)c(-n2cncn2)n1", "Vps34 (Homo sapiens, UniProt Q8NEB9)", "< 5.00"),
    ("CCN1CCC[C@@H]1CNS(=O)(=O)c1ccc(C)c(-c2cnc(N)c(-c3ccnc(C)c3)n2)c1", "Vps34 (Homo sapiens, UniProt Q8NEB9)", "< 5.04"),
    ("Cc1ccc(S(=O)(=O)NC2CC3(CC(O)C3)C2)cc1-c1cnc(N)c(-n2cncn2)n1 (single isomer, unassigned) [Example 70b]", "Vps34 (Homo sapiens, UniProt Q8NEB9)", "< 5.00"),
]

Report measured pIC50 on Vps34 (Homo sapiens, UniProt Q8NEB9); entry: "Cc1ccc(S(=O)(=O)NCC2(CO)COC2)cc1-c1cnc(N)c(-n2cncn2)n1" < 5.00

Please tell me the measured pIC50 for "Cc1ccc(S(=O)(=O)N[C@H]2CC[C@H](O)CC2)cc1-c1cnc(N)c(-c2cncnc2)n1" ; system: Vps34 (Homo sapiens, UniProt Q8NEB9). < 5.04

# return pIC50 of "Cc1ncc(-c2nc(-c3cc(S(=O)(=O)NC4CCOCC4)ccc3C)cnc2N)s1" (system: Vps34 (Homo sapiens, UniProt Q8NEB9)) 5.80

Look up Vps34 (Homo sapiens, UniProt Q8NEB9) data: pIC50 of "Cc1ncc(-c2nc(-c3cc(S(=O)(=O)NCC4COC4)ccc3C)cnc2N)s1" , then report it. 5.72

Recall the reported pIC50 of "Cc1ccc(S(=O)(=O)NCCC(C)(C)O)cc1-c1cnc(N)c(-n2cccn2)n1" on Vps34 (Homo sapiens, UniProt Q8NEB9) and write it down. < 5.04

GET pIC50 where system = Vps34 (Homo sapiens, UniProt Q8NEB9) and item = Cc1ccc(S(=O)(=O)NCC2COCCN2C)cc1-c1cnc(N)c(-c2cn(C)nc2C)n1 (single isomer, unassigned) [Example 128.3b] < 5.00

Under Vps34 (Homo sapiens, UniProt Q8NEB9): report pIC50 of Cc1ncc(-c2nc(-c3cc(S(=O)(=O)N4CCNC(C(F)(F)F)C4)ccc3C)cnc2N)s1 (stereo not drawn) . 5.84

Give Vps34 (Homo sapiens, UniProt Q8NEB9) pIC50 for the following compound: CCN1CCC[C@@H]1CNS(=O)(=O)c1ccc(C)c(-c2cnc(N)c(-c3cn(C)nc3C)n2)c1 [Example 27, hydrochloride] < 5.00
